# Test system: rat blood pressure
# Protocol text: in vivo reduction of rat blood pressure after injection into the femoral vein
# Parameters: species or system male Sprague-Dawley rats
# Applied conditions: 0.001 to 10.0 mg/kg, ratio of molar ED50 of isoproterenol to molar ED50 of the compound (dose that reduces rat blood pressure by 50%)
Square brackets hold non-standard residues; d marks the D form. Peptide text beside a SMILES is read from it. * marks the point of attachment. Phe(4-NH2) = Nc1ccc(C[C@H](N)C(=O)O)cc1; X1 = CC(CCCCC(=O)*)NCC(O)c1ccc(O)c(O)c1; Nva(5-OH) = N[C@@H](CCCO)C(=O)O; Boc = CC(C)(C)OC(=O)*
Measured attribute: In Vivo Activity Relative to Isoproterenol

**Query** Consider the compound CNC(=O)CNC(=O)[C@H](Cc1ccc(NC(=O)CCCCC(C)NCC(O)c2ccc(O)c(O)c2)cc1)NC(=O)OC(C)(C)C (stereo partly drawn) and give its measured In Vivo Activity Relative to Isoproterenol.
**Result** 3.74

**Query** Moving on to CNC(=O)CNC(=O)[C@H](Cc1ccc(NC(=O)CCCCC(C)NCC(O)c2ccc(O)c(O)c2)cc1)NC(=O)[C@H](CCCNC(N)=O)NC(C)=O (stereo partly drawn)
**Result** .79

**Query** Same thing, different compound: CNC(=O)CNC(=O)[C@H](Cc1ccc(NC(=O)CCCCC(C)NCC(O)c2ccc(O)c(O)c2)cc1)NC(=O)[C@H](CCCO)NC(=O)[C@H](CCCO)NC(=O)[C@H](CCCO)NC(=O)OC(C)(C)C (stereo partly drawn) [O] (Boc-[Nva(5-OH)][Nva(5-OH)][Nva(5-OH)][Phe(4-NH2)](X1)G-NHMe)
**Result** .76

----------
Answer each item with its documented In Vivo Activity Relative to Isoproterenol.
# Test system: rat blood pressure
# Protocol text: in vivo reduction of rat blood pressure after injection into the femoral vein
# Parameters: species or system male Sprague-Dawley rats
# Applied conditions: 0.001 to 10.0 mg/kg, ratio of molar ED50 of isoproterenol to molar ED50 of the compound (dose that reduces rat blood pressure by 50%)
Respond using a number only.

**Query** Would you mind telling me what In Vivo Activity Relative to Isoproterenol value was observed for CNC(=O)CNC(=O)[C@H](Cc1ccc(NC(=O)CCCCC(C)NCC(O)c2ccc(O)c(O)c2)cc1)NC(=O)[C@H](CCCO)NC(C)=O (some centres unmarked) [I] ?
**Result** 1.48

**Query** Ok, now CNC(=O)CC[C@H](NC(C)=O)C(=O)N[C@@H](Cc1ccc(NC(=O)CCCCC(C)NCC(O)c2ccc(O)c(O)c2)cc1)C(=O)NCC(=O)NC (some centres unmarked) [H]
**Result** 1.77

----------
Exercise: for every item that follows, state its recorded In Vivo Activity Relative to Isoproterenol.
# System: rat blood pressure
# Protocol text: in vivo reduction of rat blood pressure after injection into the femoral vein
# Parameters: species or system male Sprague-Dawley rats
# Applied conditions: 0.001 to 10.0 mg/kg, ratio of molar ED50 of isoproterenol to molar ED50 of the compound (dose that reduces rat blood pressure by 50%)
Square brackets hold non-standard residues; d marks the D form. Peptide text beside a SMILES is read from it. * marks the point of attachment. Phe(4-NH2) = Nc1ccc(C[C@H](N)C(=O)O)cc1; X1 = CC(CCCCC(=O)*)NCC(O)c1ccc(O)c(O)c1; Nva(5-OH) = N[C@@H](CCCO)C(=O)O; Boc = CC(C)(C)OC(=O)*

**Query** Value lookup for In Vivo Activity Relative to Isoproterenol; key = CNC(=O)CNC(=O)[C@H](Cc1ccc(NC(=O)CCCCC(C)NCC(O)c2ccc(O)c(O)c2)cc1)NC(=O)[C@H](CCCNC(N)=O)NC(=O)OC(C)(C)C (stereo partly drawn)
**Result** .22

**Query** Also, CNC(=O)CNC(=O)[C@H](CCCO)NC(=O)[C@H](CCCO)NC(=O)[C@H](CCCO)NC(=O)[C@H](Cc1ccc(NC(=O)CCCCC(C)NCC(O)c2ccc(O)c(O)c2)cc1)NC(=O)OC(C)(C)C (stereo partly drawn) [P] (Boc-[Phe(4-NH2)](X1)[Nva(5-OH)][Nva(5-OH)][Nva(5-OH)]G-NHMe) please.
**Result** .59

**Query** Another: CNC(=O)[C@H](Cc1ccc(NC(=O)CCCCC(C)NCC(O)c2ccc(O)c(O)c2)cc1)NC(=O)CNC(=O)OC(C)(C)C (stereo partly drawn)
**Result** .92
